# Rank, BB7.2 (decreasing order of ability to increase HLA-A2.1 expression) values compiled below
- measurement_target: HLA-A2.1 (Homo sapiens, UniProt P04439, D140Y/D185E/D98H/E176V/E277Q/G131W/G231S/I119V/I121R/I166T/I218V/L300P/L318F/N151K/N90K/P208A/P217A/Q86G/Q94H/R138H/R169H/T345S)
- assay: T2 MHC class I peptide stabilization assay
- Format: cell-based
- conditions: 19 HER-2 peptides ranked by BB7.2 MCF, 50 ug/ml
recorded_endpoint: Rank, BB7.2 (decreasing order of ability to increase HLA-A2.1 expression)

| substance | assay_value |
| --- | --- |
| E71: synthetic HER-2 peptide, residues 799-807 (QLMPYGCLL; UniProt P04626 799-807, looked up, fragment) | 16 |
| D97: synthetic HER-2 octamer peptide, residues 42-49 (HLDMLRHL; UniProt P04626 42-49, looked up, fragment) | 12 |
| E72: synthetic HER-2 peptide, residues 828-836 (QIAKGMSYL; UniProt P04626 828-836, looked up, fragment) | 19 |
| E90: synthetic HER-2 peptide, residues 789-797 (CLTSTVQLV; UniProt P04626 789-797, looked up, fragment) | 1 |
| E78: synthetic HER-2 peptide, residues 457-465 (SLRELGSGL; UniProt P04626 457-465, looked up, fragment) | 11 |
| E92: synthetic HER-2 peptide, residues 650-658 (PLTSIISAV; UniProt P04626 650-658, looked up, fragment) | 4 |
